- TEST_SYSTEM: human complement protein C3 (human) (UniProt P01024)
- Sequence (P01024 23-667, chain 1 of 2): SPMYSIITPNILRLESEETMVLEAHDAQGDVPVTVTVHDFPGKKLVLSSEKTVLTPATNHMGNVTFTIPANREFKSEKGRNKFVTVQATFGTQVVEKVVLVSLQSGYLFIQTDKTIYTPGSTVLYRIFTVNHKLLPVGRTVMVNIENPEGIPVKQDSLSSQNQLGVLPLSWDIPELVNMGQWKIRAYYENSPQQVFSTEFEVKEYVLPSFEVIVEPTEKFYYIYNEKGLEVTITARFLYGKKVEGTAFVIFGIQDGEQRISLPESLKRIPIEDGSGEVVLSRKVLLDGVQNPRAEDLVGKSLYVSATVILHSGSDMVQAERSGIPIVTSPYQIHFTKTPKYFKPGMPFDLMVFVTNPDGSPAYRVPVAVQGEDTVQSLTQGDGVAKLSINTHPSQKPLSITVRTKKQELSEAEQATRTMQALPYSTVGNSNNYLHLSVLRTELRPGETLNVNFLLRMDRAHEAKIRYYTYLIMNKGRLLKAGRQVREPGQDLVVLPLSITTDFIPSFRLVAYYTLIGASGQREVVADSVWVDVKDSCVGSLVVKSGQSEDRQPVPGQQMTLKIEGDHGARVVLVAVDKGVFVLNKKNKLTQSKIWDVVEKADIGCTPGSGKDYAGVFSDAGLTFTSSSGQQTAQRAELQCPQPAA
- Sequence (P01024 672-1663, chain 2 of 2): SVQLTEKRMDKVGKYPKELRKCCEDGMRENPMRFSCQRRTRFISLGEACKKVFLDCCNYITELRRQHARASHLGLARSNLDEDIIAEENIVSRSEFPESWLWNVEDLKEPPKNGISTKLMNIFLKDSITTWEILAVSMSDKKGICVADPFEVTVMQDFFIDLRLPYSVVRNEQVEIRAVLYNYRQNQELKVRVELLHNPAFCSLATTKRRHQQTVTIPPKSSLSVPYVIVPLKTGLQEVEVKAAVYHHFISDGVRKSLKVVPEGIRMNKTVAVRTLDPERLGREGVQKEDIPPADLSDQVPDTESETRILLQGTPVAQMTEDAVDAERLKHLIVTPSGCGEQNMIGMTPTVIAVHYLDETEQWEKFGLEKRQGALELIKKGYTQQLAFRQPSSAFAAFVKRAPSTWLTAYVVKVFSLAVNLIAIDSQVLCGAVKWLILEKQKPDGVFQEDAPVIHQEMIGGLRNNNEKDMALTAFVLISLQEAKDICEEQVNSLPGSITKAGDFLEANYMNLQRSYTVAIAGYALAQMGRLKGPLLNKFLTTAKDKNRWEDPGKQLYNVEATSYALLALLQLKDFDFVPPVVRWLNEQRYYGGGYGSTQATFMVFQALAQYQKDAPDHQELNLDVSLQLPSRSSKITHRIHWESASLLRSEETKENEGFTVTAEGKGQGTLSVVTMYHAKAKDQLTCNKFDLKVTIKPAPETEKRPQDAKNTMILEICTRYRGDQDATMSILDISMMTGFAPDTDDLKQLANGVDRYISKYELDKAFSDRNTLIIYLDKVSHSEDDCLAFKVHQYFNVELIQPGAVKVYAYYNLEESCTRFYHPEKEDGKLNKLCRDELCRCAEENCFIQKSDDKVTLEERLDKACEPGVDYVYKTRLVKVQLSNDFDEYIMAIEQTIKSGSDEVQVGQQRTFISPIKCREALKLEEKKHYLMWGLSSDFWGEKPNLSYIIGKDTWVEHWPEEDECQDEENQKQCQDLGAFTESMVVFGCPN
- EXPERIMENTAL_DETAILS: cell-based or functional assay
EXPERIMENTAL_ENDPOINT: EC50 (nM), cleavage of purified hC3 in vitro
Reply with just the number (in nM).

H40R/I41H/Y60gH/F97D/F99L/C122S/Q175M/Q192G/D217I/K224L (enzyme) VVGGTDADEGEWPWQVSLHALGQGRHCGASLISPNWLVSAAHCYIDDRGFRHSDPTQWTAFLGLHDQSQRSAPGVQERRLKRIISHPFFNDDTLDYDIALLELEKPAEYSSMVRPISLPDASHVFPAGKAIWVTGWGHTQYGGTGALILQKGEIRVINQTTCENLLPQMITPRMMCVGFLSGGVDSCGGDSGGPLSSVEADGRIFQAGVVSWGIGCAQRNLPGVYTRLPLFRDWIKENTGV
3.72
Q38Y/I41A/D60bL/F60eQ/ins97aV/F97D/T98P/F99L/C122S/G151N/Q175M/Q192A (enzyme) VVGGTDADEGEWPWQVSLHALGYGHACGASLISPNWLVSAAHCYIDLRGQRYSDPTQWTAFLGLHDQSQRSAPGVQERRLKRIISHPFFNDDVPLDYDIALLELEKPAEYSSMVRPISLPDASHVFPAGKAIWVTGWGHTQYGGTNALILQKGEIRVINQTTCENLLPQMITPRMMCVGFLSGGVDSCAGDSGGPLSSVEADGRIFQAGVVSWGDGCAQRNKPGVYTRLPLFRDWIKENTGV
1.53
H40R/I41H/F97D/F99L/C122S/Q175M/Q192G/D217V/K224Y (enzyme) VVGGTDADEGEWPWQVSLHALGQGRHCGASLISPNWLVSAAHCYIDDRGFRYSDPTQWTAFLGLHDQSQRSAPGVQERRLKRIISHPFFNDDTLDYDIALLELEKPAEYSSMVRPISLPDASHVFPAGKAIWVTGWGHTQYGGTGALILQKGEIRVINQTTCENLLPQMITPRMMCVGFLSGGVDSCGGDSGGPLSSVEADGRIFQAGVVSWGVGCAQRNYPGVYTRLPLFRDWIKENTGV
2.76
Q38H/I41S/D60bT/F60eS/Y60gW/D96L/ins97aG/F97D/T98N/F99L/C122S/G151H/Q175L/Q192E (enzyme) VVGGTDADEGEWPWQVSLHALGHGHSCGASLISPNWLVSAAHCYIDTRGSRWSDPTQWTAFLGLHDQSQRSAPGVQERRLKRIISHPFFNLDGNLDYDIALLELEKPAEYSSMVRPISLPDASHVFPAGKAIWVTGWGHTQYGGTHALILQKGEIRVINQTTCENLLPQLITPRMMCVGFLSGGVDSCEGDSGGPLSSVEADGRIFQAGVVSWGDGCAQRNKPGVYTRLPLFRDWIKENTGV
1.59
Q38H/I41S/D60bT/F60eS/Y60gW/ins97aV/F97D/T98P/F99L/C122S/G151H/Q175L (enzyme) VVGGTDADEGEWPWQVSLHALGHGHSCGASLISPNWLVSAAHCYIDTRGSRWSDPTQWTAFLGLHDQSQRSAPGVQERRLKRIISHPFFNDDVPLDYDIALLELEKPAEYSSMVRPISLPDASHVFPAGKAIWVTGWGHTQYGGTHALILQKGEIRVINQTTCENLLPQLITPRMMCVGFLSGGVDSCQGDSGGPLSSVEADGRIFQAGVVSWGDGCAQRNKPGVYTRLPLFRDWIKENTGV
1.31
Q38H/I41A/D60bT/F60eK/Y60gW/F97T/ins97aE/T98G/F99L/C122S/Q175L/Q192A (enzyme) VVGGTDADEGEWPWQVSLHALGHGHACGASLISPNWLVSAAHCYIDTRGKRWSDPTQWTAFLGLHDQSQRSAPGVQERRLKRIISHPFFNDTEGLDYDIALLELEKPAEYSSMVRPISLPDASHVFPAGKAIWVTGWGHTQYGGTGALILQKGEIRVINQTTCENLLPQLITPRMMCVGFLSGGVDSCAGDSGGPLSSVEADGRIFQAGVVSWGDGCAQRNKPGVYTRLPLFRDWIKENTGV
2.71
Q38F/I41A/D60bT/F60eG/Y60gW/ins97aE/F97T/T98G/F99L/C122S/Q175L/Q192E (enzyme) VVGGTDADEGEWPWQVSLHALGFGHACGASLISPNWLVSAAHCYIDTRGGRWSDPTQWTAFLGLHDQSQRSAPGVQERRLKRIISHPFFNDTEGLDYDIALLELEKPAEYSSMVRPISLPDASHVFPAGKAIWVTGWGHTQYGGTGALILQKGEIRVINQTTCENLLPQLITPRMMCVGFLSGGVDSCEGDSGGPLSSVEADGRIFQAGVVSWGDGCAQRNKPGVYTRLPLFRDWIKENTGV
1.25
I41S/F99L/C122S/G151N/Q175M/Q192G/D217V (enzyme) VVGGTDADEGEWPWQVSLHALGQGHSCGASLISPNWLVSAAHCYIDDRGFRYSDPTQWTAFLGLHDQSQRSAPGVQERRLKRIISHPFFNDFTLDYDIALLELEKPAEYSSMVRPISLPDASHVFPAGKAIWVTGWGHTQYGGTNALILQKGEIRVINQTTCENLLPQMITPRMMCVGFLSGGVDSCGGDSGGPLSSVEADGRIFQAGVVSWGVGCAQRNKPGVYTRLPLFRDWIKENTGV
3.19
Q38H/I41A/D60bV/F60eR/Y60gW/D96I/F97N/T98G/F99L/C122S/G151N/Q175L/Q192D (enzyme) VVGGTDADEGEWPWQVSLHALGHGHACGASLISPNWLVSAAHCYIDVRGRRWSDPTQWTAFLGLHDQSQRSAPGVQERRLKRIISHPFFNINGLDYDIALLELEKPAEYSSMVRPISLPDASHVFPAGKAIWVTGWGHTQYGGTNALILQKGEIRVINQTTCENLLPQLITPRMMCVGFLSGGVDSCDGDSGGPLSSVEADGRIFQAGVVSWGDGCAQRNKPGVYTRLPLFRDWIKENTGV
2.87

Switching to the query record.
Given the binder Q38H/I41S/D60bT/F60eS/Y60gW/D96K/F97G/ins97aA/T98P/F99L/C122S/G151H/Q175L/Q192D (enzyme) VVGGTDADEGEWPWQVSLHALGHGHSCGASLISPNWLVSAAHCYIDTRGSRWSDPTQWTAFLGLHDQSQRSAPGVQERRLKRIISHPFFNKGAPLDYDIALLELEKPAEYSSMVRPISLPDASHVFPAGKAIWVTGWGHTQYGGTHALILQKGEIRVINQTTCENLLPQLITPRMMCVGFLSGGVDSCDGDSGGPLSSVEADGRIFQAGVVSWGDGCAQRNKPGVYTRLPLFRDWIKENTGV , what is its reported EC50 (nM), cleavage of purified hC3 in vitro?
1.43
